Cited source: ChEMBL document CHEMBL1201862

# Tested on: MCF7
# Method summary: NCI tumour cell line growth inhibition, 48 h
Active and inactive are the calls of the source. No stated cut-off is given here; in the data, active = GI50 up to about 1.1 µM and inactive = higher.
Parameter: GI50

Recorded results for 4 molecules are shown here.
                                   molecule             measured
0   O=C1NC(=O)C2=C1CCC2O (stereo not given)  > 100 µM (inactive)
1  Cc1cc2c(c(C(=O)NCCC(=O)O)c1)Oc1c(cc(C)cc1C(=O)NCCC(=O)O)S2  > 100 µM (inactive)
2     c1ccc2c(c1)-c1ccccc1C2N1CC2CCC(CC2)C1   17.5 µM (inactive)
3  NCCCN(CCCCN(CCCN)C(=O)OCc1ccccc1)C(=O)OCc1ccccc1   30.9 µM (inactive)

Inquiry: Which GI50 value is on record for C/C1=C/C(=O)O[C@@H]2C[C@@H](CC[C@H](C)/C=C\C=C\CC1)O[C@@](O)([C@@H]1CSC(=O)N1)C2 ?
Reply text: 1.28 µM (inactive)

* * *

# Tested on: IGROV-1
# Method summary: NCI tumour cell line growth inhibition, 48 h
The source made the active and inactive calls. Cut-off read from the data, not from the text of the source: active = GI50 up to about 1.1 µM and inactive = higher.
Respond using exactly one of the listed classes: Yes for active, No for inactive

Record excerpt, results attached:
Compound	Cat
O=C(OC1C#CCSCC#C/C=C\1)c1ccc2c(c1)C(=O)c1ccccc1C2=O (stereo unspecified)	No
Cc1ccc(CCCCCOc2ccc(C3=NCCO3)cc2)s1	No
CCCCCCCCCCCCOCCCCCCCCC/C=C/c1ccc2c(c1)OCCOCCOCCOCCO2	No
Oc1ccc2ccccc2c1/N=N/c1cc(Cl)ccc1Cl	No

Inquiry: Dear all, I need the recorded test outcome for O=C1NN=C(c2c[nH]c3ccccc23)CC1NCc1ccccc1 (stereo unspecified) , thank you.
Reply text: Yes

Inquiry: # outcome recorded in this test, key = Cc1ccc(Oc2ccccc2N)cc1
Reply text: No

Inquiry: Please state the recorded outcome for this compound: CSc1nc(SC)c2c(C)cn(COCCOC(=O)c3ccccc3)c2n1
Reply text: No

* * *

# Tested on: UACC-62
# Method summary: NCI tumour cell line growth inhibition, 48 h
Active and inactive are the calls of the source. No stated cut-off is given here; in the data, active = GI50 up to about 1.1 µM and inactive = higher.
Return exactly one item of class 1 = active, class 0 = inactive

Inquiry: Short answer needed: outcome of this test for CCN1CCC(O)(/C=C/c2ccc(Cl)cc2)C(C(=O)/C=C/c2ccc(Cl)cc2)C1 (centres undefined) ?
Reply text: class 0

Inquiry: Please let me know the test result on file for O=c1oc2c3ccc4ccccc4c3n(CCN3CCCCC3)c2c2ccccc12 .
Reply text: class 0

Inquiry: Dear colleague, could you share the recorded outcome for COc1cccc2nc3ccccc3nc12 when you have a moment?
Reply text: class 0

* * *

# Tested on: SF-295
# Method summary: NCI tumour cell line growth inhibition, 48 h
Calls of active or inactive are those of the source. No stated cut-off is given here; in the data, active = GI50 up to about 1.1 µM and inactive = higher.
Choose one outcome from this list and give only that: 1.0 for active, 0.0 for inactive

Compound	Cat
Cc1cc(S(=O)(=O)Nc2nc3ccccc3nc2-c2cccc([N+](=O)[O-])c2)c(S)cc1Cl	0.0
Cc1ccc(C[N+](C)(C)N)cc1C	0.0
Nc1nc(SCC(=O)O)nc(O)c1N	0.0
Cn1c(=O)n2c(-c3ccccc3)c(-c3ccccc3)n2c1=O	0.0
NC12c3c4cccc3Oc3cccc(c31)Oc1cccc(c12)O4	0.0
O=C1C(c2ccccc2)=[N+]([O-])c2cc([N+](=O)[O-])c(/C(Cl)=C/c3ccccc3)cc21	0.0
COC(=O)c1ccc(/N=N/N(C)CO)cc1	0.0
CCN1C[C@]2(C)CC[C@H](OC)C34C5C[C@@H]6[C@@H](OC)C[C@@](OC)(C5[C@H]6OCc5ccccc5)C(C13)[C@H](OC(C)=O)[C@@H]42 (some centres not stated)	0.0
Nc1nc(N)c2ncn(Cc3ccccc3CO)c2n1	0.0
CO/C(=N\N=C\c1cccc(Cl)c1)c1ccncc1	0.0

Inquiry: What was the test verdict on CC(=O)OC(C)c1cc2c(s1)C(=O)c1sccc1C2=O (configuration not stated) ?
Reply text: 1.0

Inquiry: // return assay outcome for Brc1ccc(/N=N/N2CCCCC2)cc1
Reply text: 0.0
